Target System: Rap guanine nucleotide exchange factor 3 (Homo sapiens) (UniProt O95398)
Sequence (O95398 whole entry, looked up): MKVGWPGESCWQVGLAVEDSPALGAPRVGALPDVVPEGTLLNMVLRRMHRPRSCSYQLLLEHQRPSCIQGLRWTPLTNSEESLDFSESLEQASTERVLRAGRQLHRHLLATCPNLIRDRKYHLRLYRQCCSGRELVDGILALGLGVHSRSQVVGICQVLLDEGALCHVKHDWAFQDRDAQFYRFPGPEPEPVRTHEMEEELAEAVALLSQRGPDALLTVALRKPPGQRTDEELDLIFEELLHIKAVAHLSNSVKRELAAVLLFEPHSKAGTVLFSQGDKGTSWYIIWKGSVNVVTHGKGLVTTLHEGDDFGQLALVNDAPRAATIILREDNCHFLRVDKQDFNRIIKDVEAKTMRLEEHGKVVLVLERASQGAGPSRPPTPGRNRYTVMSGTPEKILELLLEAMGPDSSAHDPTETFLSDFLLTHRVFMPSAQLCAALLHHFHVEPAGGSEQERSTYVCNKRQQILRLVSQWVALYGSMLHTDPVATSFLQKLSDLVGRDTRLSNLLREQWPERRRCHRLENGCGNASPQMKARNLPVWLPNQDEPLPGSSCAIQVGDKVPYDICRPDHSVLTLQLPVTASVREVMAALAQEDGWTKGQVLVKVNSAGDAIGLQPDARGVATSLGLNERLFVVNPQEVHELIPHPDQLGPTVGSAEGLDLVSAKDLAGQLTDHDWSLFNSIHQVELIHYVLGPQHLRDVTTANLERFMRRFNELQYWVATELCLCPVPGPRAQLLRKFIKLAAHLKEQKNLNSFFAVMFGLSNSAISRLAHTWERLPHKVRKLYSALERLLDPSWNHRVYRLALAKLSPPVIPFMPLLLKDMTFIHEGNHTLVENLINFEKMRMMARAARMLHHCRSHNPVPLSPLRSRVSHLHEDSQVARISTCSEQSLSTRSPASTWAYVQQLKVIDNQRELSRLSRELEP
Experiment Summary: Counterscreen qHTS for antagonist of cAMP-regulated guanine nucleotide exchange factor 3 (EPAC1) (AID 1645888);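 further: fluorescence loss as bound BODIPY-GDP is released from Rap1B; % of control where 0% means no effect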
Run Parameters: Rap1B-BODIPY-GDP nucleotide exchange, fluorescence; series mostly up to 154 µM
Inconclusive results are not listed. Active and inactive are the calls of the source. The call rests on the fitted dose curve; in most records, active means well fitted inhibition curve with a large enough effect; inconclusive means small, poorly fitted or top-dose-only effect; inactive means no such curve, though single readings can be large or run the other way.
Endpoint Name: activity change, negative = inhibition

These solved cases illustrate the format of a correct answer.
Fc1cc(F)c(F)c(SCn2cc(Br)cn2)c1F = -7.43% [at 30.8 µM] (inactive)
CCOc1ccc(CN2C(=O)c3ccccc3Sc3ccc(C(=O)NCc4ccc5c(c4)OCO5)cc32)cc1 = inactive
Cc1ccc(C(=O)c2coc3ccc(O)c(Cl)c23)cc1 = inactive
CSc1nc(N2CCOCC2)c2c3c(sc2n1)CCC3 = inactive
CC(C)(C)c1ccc(OCCC(=O)OCC(=O)Nc2ccc(N3CCOCC3)cc2)cc1 = inactive

Would you kindly look at the next entry?
Can you look up the measured activity change, negative = inhibition of COc1ccc(CNC(=O)C(=O)Nc2ccc(OC)cc2OC)cc1 for me?
inactive

* * *

Target System: Cytochrome P450 2C9 (Homo sapiens) (UniProt P11712)
Sequence (P11712 whole entry, looked up): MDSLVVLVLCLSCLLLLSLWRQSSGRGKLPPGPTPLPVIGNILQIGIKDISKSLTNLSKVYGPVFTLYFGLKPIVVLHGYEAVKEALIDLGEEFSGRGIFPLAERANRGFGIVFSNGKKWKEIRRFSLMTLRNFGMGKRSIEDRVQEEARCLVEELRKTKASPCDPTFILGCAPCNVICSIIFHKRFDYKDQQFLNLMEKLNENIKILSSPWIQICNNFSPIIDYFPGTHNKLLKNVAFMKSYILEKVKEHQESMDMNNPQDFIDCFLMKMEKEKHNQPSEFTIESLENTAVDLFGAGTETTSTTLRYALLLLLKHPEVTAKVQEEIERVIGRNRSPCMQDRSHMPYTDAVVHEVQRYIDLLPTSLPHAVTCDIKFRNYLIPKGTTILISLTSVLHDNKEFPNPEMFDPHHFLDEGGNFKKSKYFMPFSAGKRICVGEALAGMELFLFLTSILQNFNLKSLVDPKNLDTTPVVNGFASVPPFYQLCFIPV
Experiment Summary: qHTS Assay for Inhibitors and Substrates of Cytochrome P450 2C9 (AID 883); further: nearly all actives have a fitted effect of over 60% in size
Run Parameters: recombinant CYP2C9, luciferin-H luminescence, 60 min; series mostly up to 25.6 µM
Results filed as inconclusive are left out. The source made the active and inactive calls. The call rests on the fitted dose curve; in most records, active means well fitted inhibition curve with a large enough effect; inconclusive means small, poorly fitted or top-dose-only effect; inactive means no such curve, though single readings can be large or run the other way.
Lab note: assign the record to one of active, inactive

The examples below pair each entry with its known result.
CC(=O)N(C[C@@H](C)C(=O)O)c1c(I)cc(I)c(N)c1I = inactive
C[C@@H](C(=O)O)c1ccc(N2Cc3ccccc3C2=O)cc1 = inactive
CC(=O)[C@@H]1CC[C@@H]2[C@@H]3C[C@H](C)C4=CC(=O)CC[C@@]4(C)[C@H]3[C@H](O)C[C@]21C = active
COc1cc(N)c(Cl)cc1C(=O)N[C@H]1CCN(CCCOc2ccc(F)cc2)C[C@H]1OC = inactive

For the next question, use this molecule.
What is the recorded call for this molecule in the test? C[C@@]1(O)CCOC(=O)C1
inactive

* * *

Experiment Summary: qHTS Assay for Lipid Storage Modulators (AID 1519)
Run Parameters: Drosophila S3 cells, BODIPY lipid droplet/cell ratio, laser cytometry; measured here: lipid channel max response; cells loaded with oleic acid
Experimental: NIH Molecular Libraries Probe Production Centers Network [MLPCN] NIH Chemical Genomics Center [NCGC] Assay Submitter (PI): Beller, Mathias; Max-Planck-Institut fur Biophysikalische Chemie […] We dispensed 4 uL of cells at 1.25 x 10^6 cells/mL into LoBase Aurora COC 1,536-well plates (black walled, clear bottom) with a bottle-valve solenoid-based dispenser (Aurora) to obtain 5,000 cells/well. […] The ratio of the total intensity in PMT channel 1 over total intensity of channel 3 was also calculated. […]
Records with an inconclusive call do not appear.
max response vs 10%: less than gives yes (1); not less than gives no (0).

CCC(C)C(=O)OC1C2CC3=C4CC(=O)OC(c5ccoc5)[C@]4(C)CCC3[C@@](C)(C2=O)C(CC(=O)OC)C1(C)C (stereo not given in full) = yes (1)
O=C(O)CCCC[C@@H]1SC[C@H]2NC(=O)N[C@@H]12 = no (0)
CN1[C@H](CC(=O)c2ccccc2)CCC[C@H]1C[C@@H](O)c1ccccc1 = yes (1)
CCN(CCCCOC(=O)c1ccc(OC)c(OC)c1)[C@@H](C)Cc1ccc(OC)cc1 = yes (1)
CC1(C)C(=O)CC[C@@]2(C)C1CC(O)[C@@]1(C)C3=CC(=O)OC(c4ccoc4)[C@]3(C)CCC21 (stereo not given in full) = no (0)
CN1CC(=O)N=C1N = yes (1)

Record COc1ccc2c(c1)OCC(Cc1ccc(O)c(OC)c1)C2=O (stereo not given) : is its max response strictly below 10%?
no (0)

Record Nc1nc2c(nc(Cl)n2C2OC(CO)C(O)C2O)c(=O)[nH]1 (stereo not given) : is its max response strictly below 10%?
no (0)

* * *

Target System: Rap guanine nucleotide exchange factor 3 (Homo sapiens)
Experiment Summary: Confirmatory qHTS for agonist of cAMP-regulated guanine nucleotide exchange factor 3 (EPAC1) (AID 1645881);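 further: EPAC1 catalysed release of BODIPY-GDP from Rap1B seen as fluorescence loss; 100% = effect of cAMP agonist control; nearly all actives have a fitted effect of over 75% in size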
Run Parameters: EPAC1 Rap1B BODIPY-GDP exchange fluorescence; series mostly up to 154 µM
Inconclusive results are not listed. Calls of active or inactive are those of the source. Calls follow the shape of the dose curve; as a rule, active = well fitted activation curve with a large enough effect; inconclusive = small, poorly fitted or top-dose-only effect; inactive = no such curve, though single readings can be large or run the other way.
Endpoint Name: outcome

These solved cases illustrate the format of a correct answer.
OC(c1ccc(Cl)c(Cl)c1)c1ncc(-c2ccc(Cl)cc2)[nH]1 (stereo unspecified) = inactive
O=C(O)c1ccc(/C=N/N2CCN(Cc3cccc4ccccc34)CC2)cc1 = inactive
COc1ccccc1CCc1nnc(CCC(=O)N(C)Cc2cccc3ncccc23)o1 = inactive
CSCCC(C(=O)O)N1C(=O)c2ccc(C(=O)O)cc2C1=O (stereo unspecified) = inactive
Cc1ccc(CN2C(=O)CSC2c2ccc(F)cc2)cc1 (stereo unspecified) = inactive

API: value(readout=outcome, system=Rap guanine nucleotide exchange factor 3 (Homo sapiens)) for record COc1ccc(N2CCN(C(=O)COC(=O)c3ccc(C)o3)CC2)cc1
inactive

* * *

Target System: Rap guanine nucleotide exchange factor 3 (Homo sapiens)
Experiment Summary: Confirmatory qHTS for antagonist of cAMP-regulated guanine nucleotide exchange factor 3 (EPAC1) (AID 1645880); further: nearly all actives have a fitted effect of over 55% in size; further: potency means the concentration at half of the fitted maximal effect
Run Parameters: EPAC1 Rap1B-BODIPY-GDP exchange, fluorescence; series mostly up to 115 µM
Inconclusive results are not listed. Calls of active or inactive are those of the source. Calls follow the shape of the dose curve; as a rule, active = well fitted inhibition curve with a large enough effect; inconclusive = small, poorly fitted or top-dose-only effect; inactive = no such curve, though single readings can be large or run the other way.
Endpoint Name: Potency

COc1cccc(CN(C)C(=O)c2cnn(-c3ncc4c(n3)-c3ccccc3CCC4)c2C)c1 = inactive
CCOc1cccc(C(=O)N(Cc2ccc(F)cc2)Cc2ccco2)c1 = inactive
O=C(NCCS(=O)(=O)N1CCN(c2cccc(Cl)c2)CC1)c1ccc2c(c1)OCO2 = inactive
COc1ccc(/C=N/Nc2ccc(C(=O)O)cc2)cc1Br = inactive
C/C(=N\NC(=O)c1cc(-c2cccc([N+](=O)[O-])c2)n[nH]1)c1ccccc1O = 26.9 µM (active)
COc1ccc(-c2cc(C(F)(F)F)nc(SCC(=O)NCCc3ccccc3)n2)cc1OC = inactive
Clc1ccc(-c2cc3ccccc3nc2N2CCOCC2)cc1 = inactive
Cc1nn(-c2ccccc2)c(N2CCCC2)c1/C=C1\N=C(c2ccc(OC(C)C)cc2)OC1=O = inactive
Cc1nc2sc(C(c3cccs3)N3CCN(c4ccccc4)CC3)c(O)n2n1 (stereo unspecified) = inactive
O=c1oc2ccccc2nc1/C=C(O)/C=C\c1ccccc1 = inactive

Would you kindly look at the next entry?
Can you look up the measured Potency of CCc1nc2c(OCc3ccc(OC(F)F)cc3)cccn2c1N(C)C(=O)c1ccc(OC)cc1 for me?
inactive

* * *

Tested on: CP237
Experiment Summary: qHTS profiling for inhibitors of Plasmodium falciparum proliferation (AID 504749); further: nearly all actives have a fitted effect of over 60% in size
Run Parameters: P. falciparum in erythrocytes, SYBR Green DNA, 72 h; series mostly up to 12.8 µM
Inconclusive results are not listed. Active and inactive are the calls of the source. The call rests on the fitted dose curve; in most records, active means well fitted inhibition curve with a large enough effect; inconclusive means small, poorly fitted or top-dose-only effect; inactive means flat fitted curve, though single readings scatter.
Lab note: assign the record to one of Yes for active, No for inactive

The examples below pair each entry with its known result.
CN(C)CCOC(=O)[C@@H](c1ccccc1)C1(O)CCCC1 = Yes
CN1CCN([C@@H](c2ccccc2)c2ccc(Cl)cc2)CC1 = No
CN(C)CCCOC1C(C(O)CO)OC2OC(C)(C)O[C@@H]21 (some centres undefined) = No

What is the recorded call for this compound in the test? CC[C@@H]1OC(=O)[C@H](C)[C@H](O[C@@H]2C[C@](C)(OC)[C@H](O)[C@H](C)O2)[C@H](C)[C@H](O[C@@H]2O[C@@H](C)C[C@@H](N(C)C)[C@@H]2O)[C@](C)(O)C[C@H](C)C(=NOCOCCOC)[C@H](C)[C@H](O)[C@]1(C)O
No

What is the recorded call for this compound in the test? OCC1OC([S-])[C@H](O)C(O)C1O.[Au+] (some centres undefined)
No

What is the recorded call for this compound in the test? COC(=O)N/N=C/C1=C[N+](=O)c2ccccc2[N+]1=O
No

What is the recorded call for this compound in the test? C[C@]1(c2ccccc2)OC(C(=O)O)=CC1=O
No

What is the recorded call for this compound in the test? C[C@@H](C(=O)O)c1ccc(C(=O)c2ccccc2)s1
No

What is the recorded call for this compound in the test? CC[C@H]1NC(=O)c2cc(S(N)(=O)=O)c(Cl)cc2N1
No

* * *

Target System: Glucocorticoid receptor (Homo sapiens)
Experiment Summary: GR-EFC Redistribution (AID 451); further: potency means the concentration at half of the fitted maximal effect
Run Parameters: CHO-K1 GR-EFC translocation, beta-gal luminescence, 2 h
Active and inactive are the calls of the source. The call rests on the fitted dose curve.
Lab note: assign the record to one of yes (1) = active, no (0) = inactive

The examples below pair each entry with its known result.
CCC(=O)[C@@]1(C)[C@H](C)C[C@@H]2[C@@H]3CCC4=CC(=O)C=C[C@@]4(C)[C@H]3[C@H](O)C[C@]21C = yes (1)
CC[C@](C)(CN(C)C)OC(=O)c1ccccc1 = no (0)

What is the recorded call for this compound in the test? CS(=O)(=O)Nc1cccc(-c2nc(Nc3ccc(F)cc3)c3ccccc3n2)c1
no (0)

What is the recorded call for this compound in the test? C#C[C@]1(O)CC[C@@H]2[C@H]3CCc4cc(OC)ccc4[C@@H]3CC[C@@]21C
no (0)

What is the recorded call for this compound in the test? COc1ccc(-c2cc(=O)c3c(O)cc(O)cc3o2)cc1
no (0)

What is the recorded call for this compound in the test? CN[C@@H]1[C@H](O[C@H]2[C@@H](O[C@@H]3[C@@H](O)[C@@H](O)[C@@H](N=C(N)N)[C@@H](O)[C@@H]3N=C(N)N)O[C@@H](C)[C@]2(O)CO)O[C@H](CO)[C@@H](O)[C@@H]1O
no (0)

What is the recorded call for this compound in the test? O[C@@](CCN1CCCCC1)(c1ccccc1)[C@@H]1C[C@H]2C=C[C@@H]1C2
no (0)
